EXPERIMENTAL TARGET: Protein translocase subunit SecA (Escherichia coli (strain K12))
MEASUREMENT NOTES: Assay to Identify E. coli SecA ATPase Inhibitors
Assay type: functional
Design: scale not given: direction of the effect not stated beside the values
CONDITION DETAILS: 30 µM
Results with a measured potency or affinity are listed apart.
Please provide measured Percent Effect for the entries that follow.
One number for each entry, in %.

Example cases with answers are listed next.
- CCC(O)CNC(=O)C1(N(C)Cc2ccccc2)Cc2ccccc2C1 (stereo unspecified): -4.2
- CCN(CC1CCOC1)C(=O)c1cccnc1N1CCOCC1 (stereo unspecified): -2.22
- O=C(c1nc(COc2ccc3c(c2)OCO3)no1)N1CCCC1: -2.38
- CC(C)c1noc(CN(Cc2ccccc2F)C2CC2)n1: -1.22
- O=C(c1ccc2c(c1)CCCC2)N1CCOCC1c1ncon1 (stereo unspecified): -2.2

I'm hoping you can list Percent Effect for every compound here, please.
1. O=C(Cn1nc2c(cc1=O)CCCC2)N[C@@H](C(=O)O)c1ccccc1
2. CN(C)c1ncccc1CNC(=O)N1CCCC1CN1CCCCC1 (stereo unspecified)
3. N#CC1(C(=O)Nc2ccc(OC(F)F)cc2)CCCC1
4. CC(C)(C)c1ccn(C2(C(=O)O)CCN(c3nccc(N)n3)CC2)n1

output:
1: -1.59; 2: -3.1; 3: -4.03; 4: -4.48

I'm hoping you can list Percent Effect for every compound here, please.
1. COc1ccccc1CC(=O)N1CCC(NCc2cc[nH]c2)CC1
2. CS(=O)(=O)N[C@@H]1CCO[C@]2(CCN(C(=O)c3cnccn3)C2)C1

output:
[-0.99, -3.71]

====

Species: Homo sapiens
MEASUREMENT NOTES: To identify inhibition of the IFN signalling (Jak-Stat) pathway via expression of an eGFP reporter gene under the control of an IFN-stimulated response element (ISRE) containing MxA promoter.
Format: functional
Set-up: scale not given: direction of the effect not stated beside the values
CONDITION DETAILS: 30 µM
MEASURED METRIC: Percent Effect (%)
Give bare numbers, in %.

Example cases with answers are listed next.
- Cc1nc2n(n1)CC(Nc1cc(C(F)(F)F)nc3ncnn13)CC2 (configuration not stated): -14.4
- CCn1cnnc1C1CCN(C(=O)c2cnc3ccccc3n2)CC1: -15.4
- O=C(c1ccc2c(c1)OCO2)N1CCC[C@]2(C[C@H](OCC3CC3)CO2)C1: 6.01

I'm hoping you can list Percent Effect for every compound here, please.
1. c1cnnc(NCC2CN(Cc3cccc4c3OCCO4)CCO2)c1 (configuration not stated)
2. Cc1ncsc1C(=O)NCCn1nc2ccccn2c1=O
3. O=C([C@@H]1CC[C@@H]2[C@@H](CCN2Cc2ccoc2)O1)N1CCCC1
4. CCCN(CC1COc2ccccc2O1)C(=O)CCn1cncn1 (configuration not stated)
5. CCS(=O)(=O)CCN1CCCC1c1noc(C2CC2)n1 (configuration not stated)

output:
18.6
13.6
-10.1
0.478
38.5

I'm hoping you can list Percent Effect for every compound here, please.
1. Cn1nc(CNC(=O)C2CC2)cc1C1CC1
2. O=C(NCCCn1cccn1)C1(c2ccc(Br)cc2)CC1
3. CC(C)[C@H](NC(=O)NC1CCS(=O)(=O)C1)C(=O)Nc1cccnc1 (some centres not stated)
4. c1nc(N2CCCCC2Cn2cncn2)c2ccsc2n1 (configuration not stated)

output:
1: 6.02; 2: 8.94; 3: 17.4; 4: 16.8

====

EXPERIMENTAL TARGET: Chromo domain-containing protein 1 (Saccharomyces cerevisiae (strain ATCC 204508 / S288c) (Baker's yeast))
MEASUREMENT NOTES: ScCHD-1 Enzyme Inhibition Assay; note: in the data most compounds retested in dose-response had high values
Assay type: functional
Set-up: scale not given: direction of the effect not stated beside the values
CONDITION DETAILS: 30 µM
Please provide measured Percent Effect for the entries that follow.
Answers are plain numbers, in %.

* O=C(CCc1cscn1)N1CCCC1c1noc(C2CC2)n1 (configuration not stated) | -5.15
* CC(=O)N(Cc1ncc(C)o1)C1CCN(Cc2cccc(C#N)c2)C1 (configuration not stated) | -0.172
* Cn1cc(-c2ncnc3c2CCN(C(=O)N2CCOCC2)CC3)cn1 | -11.6
* COc1ccccc1C(=O)NC(CC(=O)O)c1cccs1 (configuration not stated) | -19.2
* c1ccc(-c2ccc3nc(C4CCN(CC5CC5)CC4)nn3c2)cc1 | 0.798
* CCc1nnc2n1CCN(C(=O)c1csc(-c3cnn(C)c3)n1)C2 | -5.68
* CN(C)c1ncc(CN2CCC(c3nnsc3S(C)(=O)=O)CC2)cn1 | -9.61
* CC(C)n1cc(CN2CCCN(C(=O)c3nccnc3N)CC2)cn1 | 5
* Cc1cc(C(=O)N2CCN(C(=O)Cc3ccccn3)CC2)c(C)s1 | 5.75
* CC(=O)N1CCCC(c2ccc(Nc3nc(C)cc(C)n3)cn2)C1 (configuration not stated) | -7.25

I'm hoping you can list Percent Effect for every compound here, please.
1. CCN(Cc1ccc2c(c1)OCO2)C(=O)c1ccc(C)[nH]c1=O
2. O=C1CC2(CCN(S(=O)(=O)C3CC3)C2)CN1c1cncnc1 (configuration not stated)
3. CCOC[C@H]1CC[C@H]2[C@H](CCN2C(=O)c2ccncc2F)O1
4. Cc1nnc(NCc2cccnc2N(C)C)c(C#N)c1C

output:
-15.7
-4.67
-2.81
0.273

I'm hoping you can list Percent Effect for every compound here, please.
1. Cn1cc(-c2cnc(N3CCOCC3)nc2)cc1C(=O)O
2. Cc1cnn(CCNCc2nc(COc3ccc(F)cc3)no2)c1
3. Cc1nc(C2CCCN2Cc2nc(C)c(C)o2)no1 (configuration not stated)
4. CC(C)c1nnc2n1CCN(CCCS(=O)(=O)c1ccccc1)C2
5. COc1ccccc1Oc1ncccc1CNC(=O)C(C)N1CCCC1 (configuration not stated)
6. CCOCC(O)CN1CCN(C(=O)c2cccc(F)c2)CC1 (configuration not stated)
7. O=C(Cn1nc2c(cc1=O)CCCC2)N[C@@H](Cc1ccccc1)C(=O)O
8. O=c1nc(CNc2ccccc2)[nH]n1Cc1ccccc1

output:
[-7.1, -8.97, -5.47, -8.88, -9.98, -2.68, -9.91, -4.75]

I'm hoping you can list Percent Effect for every compound here, please.
1. O=C(CN1CCCCCCC1=O)NCc1ccccn1
2. CC(C)c1cc2c(O)nc(CSCC(=O)O)nc2s1
3. CC(C)Nc1nc(N2CCCC2)nc2c1CN(C(C)C)CC2
4. Cn1cc(-c2cnc(N3CCOCC3)nc2)cc1C(=O)N1CCOCC1
5. CC(C)OCCCN1CCCC(c2nc3ccccc3n2C(C)C)C1 (configuration not stated)
6. CN(c1cccnn1)C1CCN(C(=O)c2ccc3c(c2)COC3)CC1

output:
-5.16
-9.79
-5.55
-9.55
6.88
-5.25

I'm hoping you can list Percent Effect for every compound here, please.
1. Cc1cc(S(=O)(=O)Nc2cccc(-n3cccc3)c2)sc1C(=O)O
2. CCOc1cc(F)ccc1NS(=O)(=O)c1cc(C)c(C(=O)O)s1
3. CN(C)C(=O)N1C[C@@H]2COC[C@]2(CNS(C)(=O)=O)C1
4. Cc1cc(N2CCC(N(C)C(=O)c3ccccc3)CC2)nc(C)n1
5. CN(C)C(=O)CS(=O)(=O)Cc1cc(Cl)c2c(c1)OCO2
6. O=C(c1cccnc1)N1CC[C@H](OCC2CC2)[C@@H]1Cc1cccnc1
7. CN(C)CCOCC1CN(CC2CCOCC2)Cc2nnn(C)c21 (configuration not stated)

output:
32.5
-11.4
3.04
-8.12
-7.39
-6.48
-4.9

I'm hoping you can list Percent Effect for every compound here, please.
1. O=C(CCOc1cccc(F)c1)N1CCCC(n2cncn2)C1 (configuration not stated)
2. CCOCCn1c(=O)[nH]c2cc(C(=O)N(C)CCc3cn[nH]c3)ccc21

output:
-10.2
-7.29

I'm hoping you can list Percent Effect for every compound here, please.
1. Cc1nc(C)c(C(=O)NCCNC(=O)Cc2cccc(F)c2)s1
2. O=C(NC1CCCC1)[C@@H]1CN(Cc2nccs2)C[C@H]2OCC[C@H]21
3. COCCN1C(=O)[C@]2(CC[C@@H]3CN(C(=O)NC4CCCC4)C[C@@H]32)N=C1C
4. CC(C)COCC1CN(Cc2ccc3c(c2)OCO3)Cc2ncn(C)c21 (configuration not stated)
5. O=C1NCC2(CCCN(CCc3ccccc3)C2)Oc2ccccc21 (configuration not stated)

output:
1. -4.49
2. 7.18
3. -9.58
4. 0.344
5. -14.2

I'm hoping you can list Percent Effect for every compound here, please.
1. CN(Cc1cc[nH]n1)C(=O)c1cccc(CCC(C)(C)O)c1
2. COc1ccc(-c2nc(CN3CCN(CCO)CC3)co2)cc1
3. Cc1ccc(N(C)C2CCN(C(=O)CCc3ccco3)CC2)nn1
4. Cc1ncc2c(n1)CCCC2NC(=O)c1ccncc1 (configuration not stated)
5. CCOC(CC)C(=O)NCCC(=O)N1CCN(c2ncccn2)CC1 (configuration not stated)

output:
-5.03
-9.19
3.63
-0.226
1.78
